Assay: in vitro
Conditions: human, hela cells, % viability
Quick list: viability at 28.5 h, 10 µM per entry.

compound | viability at 28.5 h, 10 µM (%)
COc1ccc(/C=C/c2nc(C#N)c(NCc3cccnc3)o2)cc1OC | 91.3
CC(C)C(=O)N1C[C@H]2NC(=O)c3ccccc3C(=O)[C@@]2(C)C1 | 103
Cc1ccc(C(=O)O)cc1NC(=O)C1CCCCC1C(=O)O (stereo not drawn) | 93.5
C=CCc1ccc(OCC(=O)NN)c(OC)c1 | 97.5
COc1ccc(C(=O)Cn2nc3nnc(-c4ccccc4)c(-c4ccccc4)n3c2=O)cc1 | 83.4
C[C@H]1CN2C[C@H](O)CC2CN1Cc1cccn1-c1ccc(F)cc1 (stereo partly drawn) | 97.4
Cc1ccc2c(c1)C(=O)CC1(CCC3C(C(=O)N4CCCC4)C31)O2 (stereo not drawn) | 98.3
CCCc1cc(C(=O)NC(C)(C)CN2CCCC(C)C2)[nH]n1 (stereo not drawn) | 89.1
O=C(NCN1CCN(c2ccccc2F)CC1)c1cccnc1 | 90

Data origin: paper PMC12040169
